The origin of these recorded values is patent US20190218277A1.

- target-or-test-system: T1, Recombinant soluble E protein (0.8E-His) from DENV-1 (DENV-1, UniProt P27909 281-675)
- T1 construct: also called DENV-1 E protein; DV1
Entries and their Kd
Reply with just the number (in nM).

Recorded results for 2 binders are shown here.
>  <binder>
DG_3CH989-SG182/3CL668-SK1 (antibody, V domains shown) VH: QVQLVQSGAEVKKPGASVKVSCKASGYTFTSNYIHWVRQAPGQGLEWMGVINPRGGSRRSAQKFQGRVTMTRDTSTSTVYMELSSLRSEDTAVYYCARGGRALFYDSYTTPFDGGSWWFDPWGQGSLVTVSS VL: DIQLTQSPSSLSASVGDRVTITCQASQDIRKYLNWYQQKPGKAPKLLIYDASNLKTGVPSRFSGSGSGTDFTLTISSLQPEDVATYYCQQFEDLPITFGQGTRLQIKR

>  <measured-number>
1.5

$$$$
>  <binder>
DG_3CH989-SG182/3CL119-SK1 (antibody, V domains shown) VH: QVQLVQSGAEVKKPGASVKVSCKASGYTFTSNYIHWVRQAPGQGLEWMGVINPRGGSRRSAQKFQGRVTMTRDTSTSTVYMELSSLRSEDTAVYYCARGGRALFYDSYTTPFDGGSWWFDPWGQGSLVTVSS VL: DIQLTQSPSSLSASVGDRVTFTCQASQEIRKYLNWYQQKPGKAPKLLIYDASNLKTGVPSRFSGSGSGTDFTFTISSLQPEDVATYYCQQFDDLPITFGQGTRLQIKR

>  <measured-number>
1.53

$$$$

Now for a further binder.
Data request: Request the reported Kd associated with DG_3CH987-SG182/3CL-SK1 (antibody, V domains shown) VH: QVQLVQSGPDVEKPGASVKVSCKASGYTFTSYYIHWVRQAPGQGLEWMGVINPRGGSRRSAQKFQGRITMTRDTSTSTVYMELSSLRSEDTAVYYCARGGRALFYDSYTTPFDGGSWWFDPWGQGSLVTVSS VL: DIQLTQSPSSLSASVGDRVTFTCQASQDIRKYLNWYQQKPGKAPKLLIYDASNLKTGVPSRFSGSGSGTDFTFTISSLQPEDVATYYCQQFDDLPITFGQGTRLQIKR
Data returned: 1.82
